- target_under_test: T1, human TIGIT expressed on cells (human, UniProt Q495A1 22-244)
- T1 construct: whole, on cells; on Jurkat E6.1 cells transduced with human TIGIT, on Promega TIGIT Effector cells or on human primary T cells; the assay field says which; also called hTIGIT; Jurkat-hTIGIT
- T1 sequence (looked up): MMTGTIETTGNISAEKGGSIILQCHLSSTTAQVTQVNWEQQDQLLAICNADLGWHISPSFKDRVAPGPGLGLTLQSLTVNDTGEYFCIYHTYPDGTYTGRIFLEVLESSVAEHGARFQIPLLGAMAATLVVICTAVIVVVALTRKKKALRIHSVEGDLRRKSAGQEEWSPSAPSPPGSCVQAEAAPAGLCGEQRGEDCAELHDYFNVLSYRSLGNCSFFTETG
- experiment_notes: flow cytometry, competition with CD155-His (15 ug/ml) on Jurkat-hTIGIT
assay_readout: Fold change of IC50 over IC50 of best clone (31282_up) (fold)
One number for each entry, in fold.

Ask | State the recorded Fold change of IC50 over IC50 of best clone (31282_up) for this entry: 22G2 (comparative anti-TIGIT antibody, human IgG1) (antibody, V domains shown, from WO2016/106302; made in HEK cells as human IgG1) VH: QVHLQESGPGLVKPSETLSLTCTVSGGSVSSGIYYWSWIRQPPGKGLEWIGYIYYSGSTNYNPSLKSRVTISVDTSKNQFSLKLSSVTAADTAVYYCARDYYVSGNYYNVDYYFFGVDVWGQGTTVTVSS VL: EIVLTQSPATLSLSPGERATLSCRASQSVSSYLAWYQQKPGQAPRLLIYDASNRATGIPARFSGSGSGTDFTLTISSLEPEDFAVYYCQQRSNWPPLFTFGPGTKVDIK
Reply | 2.2

The measurements presented in this section are drawn from patent US20200407445A1.
